- STUDY TARGET: Progesterone receptor (Homo sapiens)
- EXPERIMENTAL PROTOCOL: Relative binding affinity for progesterone receptor in MCF-7 cell cytosol extract
VALUE KIND: Binding (%)
Please give a number only; it is taken to be in %.

COMPOUND	Binding [%]
C[C@]12CCC(=O)C[C@@H]1CC[C@@H]1[C@@H]2CC[C@]2(C)[C@@H](O)CC[C@@H]12	0.205
CC(=O)[C@H]1CC[C@H]2[C@@H]3CCC4=CC(=O)CC[C@]4(C)[C@H]3CC[C@]12C	100
C[C@@H]1CC2=CC(=O)CCC2[C@H]2CC[C@@]3(C)[C@@H](CC[C@@]3(O)/C=C/I)[C@H]12 (stereo partly specified)	9.84
C[C@]12CC[C@H]3[C@@H](CCC4=CC(=O)CC[C@@]43C)[C@@H]1CC[C@@H]2O	0.112
C[C@]1(O)CC[C@H]2[C@@H]3CCC4=CC(=O)CCC4=C3C=C[C@@]21C	98

Kindly review the next compound as well.
# input Specify reported Binding for the compound shown: CC12CC[C@H]3[C@@H]([C@H](I)C[C@H]4CC(=O)CCC43C)[C@@H]1CCC2O (stereo partly specified)
# output 0.239

---

- Species on record: Rattus norvegicus
- EXPERIMENTAL PROTOCOL: Relative binding affinity for progesterone receptor in rat uterine cytosol extract
- COND: Uterus
Kindly apply the following: T if Binding is less than 2%, F in every other case.

COMPOUND	CLASS ASSIGNMENT
C[C@]1(O)CC[C@H]2[C@@H]3CCC4=CC(=O)CCC4=C3C=C[C@@]21C	F
C[C@]12CC[C@H]3[C@@H](CCC4=CC(=O)CC[C@@]43C)[C@@H]1CC[C@@H]2O	T
C[C@@H]1CC2=CC(=O)CCC2[C@H]2CC[C@@]3(C)[C@@H](CC[C@@]3(O)/C=C/I)[C@H]12 (stereo partly specified)	F

# input Lab note: confirm whether the reported Binding for this compound is below 2%, equality not counting. compound: CC(=O)[C@H]1CC[C@H]2[C@@H]3CCC4=CC(=O)CC[C@]4(C)[C@H]3CC[C@]12C
# output F

# input Lab note: confirm whether the reported Binding for this compound is below 2%, equality not counting. compound: CC12CC[C@H]3[C@@H]([C@H](I)C[C@H]4CC(=O)CCC43C)[C@@H]1CCC2O (stereo partly specified)
# output T

# input Lab note: confirm whether the reported Binding for this compound is below 2%, equality not counting. compound: C[C@]12CCC(=O)C[C@@H]1CC[C@@H]1[C@@H]2CC[C@]2(C)[C@@H](O)CC[C@@H]12
# output T
